Origin of the recorded values: PubChem BioAssay AID624344

EXPERIMENT_NOTES: NFkB reporter suppression in cystic fibrosis bronchial cells – cell-based, uHTS hits, panel, cytotoxicity readout, dose response (AID 624344)
STATED_CONDITIONS: CF bronchial epithelial cells, PAF-induced NFkB reporter inhibition; with PAF, mean of runs
What IC50 was measured for each of the following?

Worked cases, answers included:
Cc1nc([N+](=O)[O-])c(Sc2nc3ccccc3n2C)n1Cc1ccccc1	4.05 µM
CC(C)C[C@H](CO)Nc1nc(Nc2cccc(Cl)c2)c2ncn(C(C)C)c2n1	5.12 µM
Cc1ccc(CSc2nccc(-c3c(C)nc4ccccn34)n2)cc1	3.18 µM
Nc1ncnc(NCc2ccc(F)cc2)c1[N+](=O)[O-]	3.33 µM
Cc1cccc(N2CCN(C(=O)CCn3c(=S)[nH]c4cc5c(cc4c3=O)OCO5)CC2C)c1 (stereo unspecified)	6.2 µM

For every item below, please supply its IC50.
1. Cc1ccnc(NC(=O)CCCOc2cc(=O)n(C)c3ccccc23)c1
2. COc1ccc(-n2cc(-c3ccccc3)c3c(N4CC(C)OC(C)C4)ncnc32)cc1 (stereo unspecified)
3. CC1CCN(Cc2c(C(=O)N/N=C/c3ccc(C(C)(C)C)cc3)nnn2-c2nonc2N)CC1
4. COc1ccc(-n2nnnc2S(=O)(=O)Cc2ccc(C(=O)O)cc2)cc1
5. C=CC[C@@H](CC(=O)N[C@H](CO)Cc1ccccc1)C(=O)NC[C@H](OC(=O)[C@@H](CC=C)Cc1ccc(F)cc1)c1ccccc1
6. O=S1(=O)CC=C(CSC(=S)NC2CCS(=O)(=O)C2)C1 (stereo unspecified)
7. Cc1nc(N2CCC(C(N)=O)CC2)c2c(-c3cccs3)csc2n1
8. COc1ccc(-c2cc(=O)oc3cc(OC(=O)C4CCCCC4)c(Cl)cc23)cc1

Response:
1: 11.2 µM; 2: 4.95 µM; 3: 14.6 µM; 4: 1.05 µM; 5: 5.6 µM; 6: 3.05 µM; 7: 3.23 µM; 8: 0.302 µM
